biological target: Muscarinic acetylcholine receptor M1 (Homo sapiens)
Sequence (P11229 whole entry): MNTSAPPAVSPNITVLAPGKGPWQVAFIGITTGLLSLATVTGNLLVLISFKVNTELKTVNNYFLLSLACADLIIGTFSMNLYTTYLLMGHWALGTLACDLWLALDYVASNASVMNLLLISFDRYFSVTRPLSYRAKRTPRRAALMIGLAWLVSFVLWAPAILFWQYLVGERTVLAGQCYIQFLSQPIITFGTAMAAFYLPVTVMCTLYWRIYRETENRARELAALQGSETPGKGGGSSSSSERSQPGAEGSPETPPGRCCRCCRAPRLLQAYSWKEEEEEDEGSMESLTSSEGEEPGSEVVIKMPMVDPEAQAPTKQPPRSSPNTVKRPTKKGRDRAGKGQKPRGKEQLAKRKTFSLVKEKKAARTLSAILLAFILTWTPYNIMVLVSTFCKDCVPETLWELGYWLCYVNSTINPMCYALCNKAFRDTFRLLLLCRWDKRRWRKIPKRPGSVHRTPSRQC
property label: EC50 (nM)
Enter your answer as a number in nM; do not include the unit.

Below: 5 molecules and their reported EC50.
# molecule, u, EC50
measured = [
    ("C(#Cc1ccccc1)CSc1nsnc1[C@@H]1CN2CCC[C@H]1C2", "nM", 1),
    ("C(#Cc1ccccc1)COc1nsnc1C1CN2CCC1CC2 (stereo unspecified)", "nM", 15.7),
    ("C(#Cc1ccccc1)COc1nsnc1[C@H]1CN2CCC[C@H]1C2", "nM", 0.5),
    ("CN1CCC=C(c2nsnc2OCC#Cc2ccccc2)C1", "nM", 110),
    ("C(#Cc1ccccc1)COc1nsnc1[C@@H]1CN2CCC[C@H]1C2", "nM", 28.3),
]

Now for another entry.
Incoming: Which EC50 is listed for `C(#Cc1ccccc1)COc1nsnc1[C@@H]1CN2CC[C@H]1C2` ?
Outgoing: 67.3
